# System: mouse colon adenocarcinoma (CT26) cells
# assay_procedure: Resazurin cell viability assay, (photo)cytotoxicity, normoxia
# Format: cell-based
# conditions_used: Mus musculus, CT26, light or radiation study, CT26, 645 nm, FWHM 10 nm, 9.00 J/cm^2; read-out: IC50

compound	IC50 / µM
C=Cc1c(C)c2cc3nc(c(CC(=O)O)c4[nH]c(cc5nc(cc1[nH]2)C(C)=C5CC)c(C)c4C(=O)O)[C@@H](CCC(=O)O)[C@@H]3C [Ce6, chlorin e6]	3.93

====

# System: mouse colon adenocarcinoma (CT26) cells
# assay_procedure: Resazurin cell viability assay, (photo)cytotoxicity, normoxia
# Type: cell-based
# conditions_used: Mus musculus, CT26, CT26, dark, normoxia; read-out: IC50 Dark
Each entry below carries its reported IC50.

compound	IC50
C=Cc1c(C)c2cc3nc(c(CC(=O)O)c4[nH]c(cc5nc(cc1[nH]2)C(C)=C5CC)c(C)c4C(=O)O)[C@@H](CCC(=O)O)[C@@H]3C [Ce6, chlorin e6]	> 100 µM
C=CC1=C(C)c2cc3[nH]c(cc4nc(cc5[nH]c(cc1n2)c(C)c5CCC(=O)O)C(CCC(=O)O)=C4C)c(C)c3C=C [PpIX, protoporphyrin IX]	> 100 µM

====

# Test system: mouse colon adenocarcinoma (CT26) cells
# assay_procedure: Resazurin cell viability assay, (photo)cytotoxicity, normoxia
# Type: cell-based
# conditions_used: Mus musculus, CT26, light or radiation study, CT26, 480 nm, FWHM 10 nm, 3.38 J/cm^2; read-out: IC50

molecular_string	tested_target	endpoint_unit	IC50
C=Cc1c(C)c2cc3nc(c(CC(=O)O)c4[nH]c(cc5nc(cc1[nH]2)C(C)=C5CC)c(C)c4C(=O)O)[C@@H](CCC(=O)O)[C@@H]3C	mouse colon adenocarcinoma (CT26) cells	nM	2640

====

# Test system: human glioblastoma cells (U-87 MG)
# assay_procedure: Resazurin cell viability assay, (photo)cytotoxicity, normoxia
# Format: cell-based
# conditions_used: Homo sapiens, light or radiation study, 1 h, 740 nm, 1.12 mW/cm2, 60 min, 12.60 J/cm2, read-out: IC50 740 nm
measurement_kind: IC50 (µM)

molecular_string	measurement_kind	reported
C=Cc1c(C)c2cc3nc(c(CC(=O)O)c4[nH]c(cc5nc(cc1[nH]2)C(C)=C5CC)c(C)c4C(=O)O)[C@@H](CCC(=O)O)[C@@H]3C	IC50	4.15

====

# Tested on: human glioblastoma cells (U-87 MG)
# assay_procedure: Resazurin cell viability assay, (photo)cytotoxicity, normoxia
# Type: cell-based
# conditions_used: Homo sapiens, dark, read-out: IC50 Dark
measurement_kind: IC50

molecular_string	measurement_kind	reported
C=Cc1c(C)c2cc3nc(c(CC(=O)O)c4[nH]c(cc5nc(cc1[nH]2)C(C)=C5CC)c(C)c4C(=O)O)[C@@H](CCC(=O)O)[C@@H]3C	IC50	116 µM
